assay: self-splicing fitness, log relative to wild type (ln ratio); higher = more splicing; Tetrahymena group I intron in knt gene, E. coli kanamycin selection, DiMSum; sequences stand for … in CUCUCU…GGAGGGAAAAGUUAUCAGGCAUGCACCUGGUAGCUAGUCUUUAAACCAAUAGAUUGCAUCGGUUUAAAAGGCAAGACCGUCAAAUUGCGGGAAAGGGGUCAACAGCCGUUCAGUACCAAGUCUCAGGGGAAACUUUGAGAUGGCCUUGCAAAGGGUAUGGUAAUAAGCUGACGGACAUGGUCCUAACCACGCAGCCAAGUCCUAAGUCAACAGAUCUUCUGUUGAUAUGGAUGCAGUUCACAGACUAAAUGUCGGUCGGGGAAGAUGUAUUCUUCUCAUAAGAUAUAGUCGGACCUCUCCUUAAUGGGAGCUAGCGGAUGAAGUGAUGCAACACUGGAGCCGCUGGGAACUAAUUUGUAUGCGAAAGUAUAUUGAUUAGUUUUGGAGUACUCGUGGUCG; conditions: 30 °C;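 further: selection with 25 µg/mL kanamycin versus none on LB agar overnight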
Would you please tag the item satisfied when its self-splicing fitness (ln) is -1 or above, and not satisfied when it is below?

{"sequenceCode": "GGAAAGCAAUAUUACGACUA", "answerLabel": "satisfied"}
{"sequenceCode": "CUUGAGCAAUAUUACGUAUG", "answerLabel": "not satisfied"}
{"sequenceCode": "GCUUAGCAAUAUUACGAAAC", "answerLabel": "not satisfied"}
{"sequenceCode": "CACCAGCAAUAUUACGCAUA", "answerLabel": "not satisfied"}
{"sequenceCode": "CCUUAGCAAUAUUACGAAGA", "answerLabel": "not satisfied"}
{"sequenceCode": "ACAAAGCAAUAUUACGCACC", "answerLabel": "satisfied"}
{"sequenceCode": "AUUCAGCAAUAUUACGUUGG", "answerLabel": "not satisfied"}
{"sequenceCode": "CGCGAGCAAUAUUACGCUAU", "answerLabel": "not satisfied"}
{"sequenceCode": "GCUUAGCAAUAUUACGGACA", "answerLabel": "satisfied"}
{"sequenceCode": "GCCCAGCAAUAUUACGGAGA", "answerLabel": "satisfied"}
{"sequenceCode": "GACAAGCAAUAUUACGGGGU", "answerLabel": "not satisfied"}
{"sequenceCode": "CUUAAGCAAUAUUACGCACA", "answerLabel": "not satisfied"}
{"sequenceCode": "UAAUAGCAAUAUUACGUAGG", "answerLabel": "not satisfied"}
{"sequenceCode": "CAAUAGCAAUAUUACGCGAC", "answerLabel": "not satisfied"}
{"sequenceCode": "GAUAAGCAAUAUUACGUCGU", "answerLabel": "not satisfied"}
{"sequenceCode": "AACUAGCAAUAUUACGCGGU", "answerLabel": "not satisfied"}

---

Overview of recorded self-splicing fitness (ln) for various sequences
test: self-splicing fitness, log relative to wild type (ln ratio); higher = more splicing; Tetrahymena group I intron in knt gene, E. coli kanamycin selection, DiMSum; sequences stand for … in CUCUCU…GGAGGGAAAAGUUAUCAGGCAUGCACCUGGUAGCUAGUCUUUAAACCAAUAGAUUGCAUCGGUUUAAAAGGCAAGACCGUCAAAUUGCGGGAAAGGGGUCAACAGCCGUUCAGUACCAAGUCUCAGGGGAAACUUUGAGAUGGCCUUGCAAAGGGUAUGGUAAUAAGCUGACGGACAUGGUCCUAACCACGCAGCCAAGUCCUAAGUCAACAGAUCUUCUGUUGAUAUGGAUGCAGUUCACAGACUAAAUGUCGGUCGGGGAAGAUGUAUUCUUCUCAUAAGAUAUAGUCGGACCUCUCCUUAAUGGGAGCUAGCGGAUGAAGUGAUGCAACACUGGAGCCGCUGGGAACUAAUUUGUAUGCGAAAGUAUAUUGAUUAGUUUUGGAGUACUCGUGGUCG; settings: 37 °C
observable: self-splicing fitness (ln)

{"sequenceCode": "ACAUAGCAAUAUUACGCGCU", "readoutValue": -0.534}
{"sequenceCode": "GUGAAGCAAUAUUACGGGAG", "readoutValue": -0.567}
{"sequenceCode": "AACGAGCAAUAUUACGACAG", "readoutValue": -2.37}
{"sequenceCode": "UACCAGCAAUAUUACGGUAU", "readoutValue": -2.35}
{"sequenceCode": "GAACAGCAAUAUUACGCGAG", "readoutValue": -1.32}
{"sequenceCode": "ACCAAGCAAUAUUACGCUAG", "readoutValue": -1.52}
{"sequenceCode": "GUUUAGCAAUAUUACGUCGA", "readoutValue": -0.62}
{"sequenceCode": "GCAUAGCAAUAUUACGGCGC", "readoutValue": -0.485}
{"sequenceCode": "GCCCAGCAAUAUUACGAACA", "readoutValue": -1.46}
{"sequenceCode": "AAGAAGCAAUAUUACGGUGG", "readoutValue": -1.98}
{"sequenceCode": "GUGGAGCAAUAUUACGCUUA", "readoutValue": -1.04}
{"sequenceCode": "UGACAGCAAUAUUACGGAAC", "readoutValue": -2.42}
{"sequenceCode": "ACGCAGCAAUAUUACGUUAC", "readoutValue": -3.27}
{"sequenceCode": "UGAAAGCAAUAUUACGAGGA", "readoutValue": -1.81}
{"sequenceCode": "AGUUAGCAAUAUUACGAGUC", "readoutValue": -3.27}
{"sequenceCode": "CAAAAGCAAUAUUACGUACA", "readoutValue": -1.54}
{"sequenceCode": "GCCUAGCAAUAUUACGUCAU", "readoutValue": -1.4}
{"sequenceCode": "UAUUAGCAAUAUUACGCGGU", "readoutValue": -1.8}
{"sequenceCode": "GGGCAGCAAUAUUACGAUCU", "readoutValue": 0.124}
{"sequenceCode": "CUUGAGCAAUAUUACGUUAG", "readoutValue": -1.11}
{"sequenceCode": "GAAGAGCAAUAUUACGAUCU", "readoutValue": -0.955}
{"sequenceCode": "UCUGAGCAAUAUUACGUUAG", "readoutValue": -1.82}
{"sequenceCode": "CUAAAGCAAUAUUACGUCAG", "readoutValue": 0.333}
{"sequenceCode": "ACCGAGCAAUAUUACGCGCA", "readoutValue": -0.82}
{"sequenceCode": "GACAAGCAAUAUUACGGGGU", "readoutValue": -3.16}
{"sequenceCode": "UGAAAGCAAUAUUACGGUGG", "readoutValue": -1.44}
{"sequenceCode": "GAAAAGCAAUAUUACGGCCC", "readoutValue": 0.473}
{"sequenceCode": "UGUAAGCAAUAUUACGUUUU", "readoutValue": -1.14}
{"sequenceCode": "CUCCAGCAAUAUUACGACUC", "readoutValue": -2.24}
{"sequenceCode": "GGACAGCAAUAUUACGGAAU", "readoutValue": -0.191}
{"sequenceCode": "UGGGAGCAAUAUUACGCGCG", "readoutValue": -0.924}
{"sequenceCode": "ACCGAGCAAUAUUACGCAGU", "readoutValue": -2.48}
{"sequenceCode": "CCCUAGCAAUAUUACGUACU", "readoutValue": -2.65}
{"sequenceCode": "ACCGAGCAAUAUUACGGUUG", "readoutValue": -2.51}
{"sequenceCode": "CGCAAGCAAUAUUACGGGAG", "readoutValue": -2.19}
{"sequenceCode": "ACGAAGCAAUAUUACGGGAU", "readoutValue": -1.8}
{"sequenceCode": "CGGAAGCAAUAUUACGAUCC", "readoutValue": -1.42}
{"sequenceCode": "CCACAGCAAUAUUACGAAUA", "readoutValue": -2.59}
{"sequenceCode": "UACGAGCAAUAUUACGAAUU", "readoutValue": -3.21}
{"sequenceCode": "CUUCAGCAAUAUUACGCCUG", "readoutValue": 0.268}
{"sequenceCode": "CGCGAGCAAUAUUACGUGAG", "readoutValue": -2.54}
{"sequenceCode": "GCUCAGCAAUAUUACGAUUG", "readoutValue": -1.11}
{"sequenceCode": "UAGAAGCAAUAUUACGACUA", "readoutValue": 0.71}
{"sequenceCode": "UCCAAGCAAUAUUACGGCCA", "readoutValue": 0.127}
{"sequenceCode": "GUUUAGCAAUAUUACGUCAA", "readoutValue": -0.778}
{"sequenceCode": "UCUUAGCAAUAUUACGGUCU", "readoutValue": -2.67}
{"sequenceCode": "CUUCAGCAAUAUUACGUCUA", "readoutValue": -2.38}
{"sequenceCode": "GCCCAGCAAUAUUACGAAAU", "readoutValue": -1.36}
{"sequenceCode": "GAAUAGCAAUAUUACGUCAU", "readoutValue": -0.865}
{"sequenceCode": "UUAAAGCAAUAUUACGAGCU", "readoutValue": -0.532}
{"sequenceCode": "CGUAAGCAAUAUUACGCCAU", "readoutValue": -2.7}
{"sequenceCode": "UUGAAGCAAUAUUACGAAUU", "readoutValue": -1.3}
{"sequenceCode": "GCUCAGCAAUAUUACGCAAU", "readoutValue": 0.487}
{"sequenceCode": "UACCAGCAAUAUUACGGGAU", "readoutValue": -1.53}
{"sequenceCode": "CAUGAGCAAUAUUACGUAGG", "readoutValue": -1.46}
{"sequenceCode": "AGAAAGCAAUAUUACGGUAC", "readoutValue": -1.67}
{"sequenceCode": "UGCCAGCAAUAUUACGGUUA", "readoutValue": 0.213}
{"sequenceCode": "AUGAAGCAAUAUUACGUCCU", "readoutValue": 0.0551}
{"sequenceCode": "CUUCAGCAAUAUUACGUGGA", "readoutValue": -3.04}
{"sequenceCode": "CGCUAGCAAUAUUACGCAAA", "readoutValue": -3.01}
{"sequenceCode": "UAGAAGCAAUAUUACGGUGU", "readoutValue": -3.06}
{"sequenceCode": "GUCGAGCAAUAUUACGAGAC", "readoutValue": 0.237}
{"sequenceCode": "GACAAGCAAUAUUACGCAUA", "readoutValue": -0.12}
{"sequenceCode": "CCAAAGCAAUAUUACGCAAU", "readoutValue": -1.46}
{"sequenceCode": "GAUAAGCAAUAUUACGUCGU", "readoutValue": -0.373}
{"sequenceCode": "AGGUAGCAAUAUUACGUUUU", "readoutValue": -1.54}
{"sequenceCode": "AGGCAGCAAUAUUACGAGGU", "readoutValue": -2.68}

The measured values listed here are drawn from the supplement of paper PMC7877785.
